# Tested on: MDR1 (P-gp)
# protocol: MDR1-MDCK assay, blood-brain-barrier penetration potential
# Format: in vitro ADME
# recordedConditions: dog, MDCK-MDR1, pH 7.4, B to A, replicate 2, 5 μM, 120 minutes; read-out: Papp R2
valueType: Papp B→A at 120 min, 5 μM (×10⁻⁶ cm/s)

- smilesText: "O=C(COc1ccccc1C(=O)NC[C@@H]1CCCO1)Nc1ccc(Br)cc1"
  readingUnit: "×10⁻⁶ cm/s"
  resultValue: 37

====

# Tested on: MDR1
# protocol: MDR1-MDCK assay, blood-brain-barrier penetration potential
# Assay type: in vitro ADME
# recordedConditions: dog, MDCK-MDR1, pH 7.4, B to A, 5 μM, 120 minutes
valueType: recovery at 120 min, 5 μM (%)

- molecule: "O=C(COc1ccccc1C(=O)NC[C@@H]1CCCO1)Nc1ccc(Br)cc1 [Compound 8]"
  valueType: "recovery at 120 min, 5 μM"
  resultValue: 86

Origin of values: patent US10588888B2
